Value source: the supplement of paper PMC9170038

# apparent KD of MS2 coat protein listing for each entry below
# Tested on: MS2 coat protein
# protocol description: apparent KD of MS2 coat protein; designed switch direction (-1 OFF switch, 1 ON switch): 1; higher = weaker reporter binding
# details: Eterna round: R95; input ligand: FMN 200 uM

sequence code: AACAAUCUAUCUGAGGAUAUCAUGAAAUAAACAUGAGGAUCACCCAUGUGCAGGAUAACUGCAUAUGAGAAGGCAGAUAGAUUGA [salish99_ss2_r3_041] (puzzle: Same State 2)
value units: nM
apparent KD of MS2 coat protein: 57.3
//
sequence code: ACGCAGCUGGGUGAGGAUAUUGGUGGUACAACAUGAGGAUCACCCAUGUCCGAAGCUCGGACCCUCGAGAAGGCGCCCGGCUGCG [Soinraesar Omei Mod 5] (puzzle: Same State 2)
value units: nM
apparent KD of MS2 coat protein: 122
//
sequence code: AAGUUAAGCUUUUUGUUCUGCCUAUUCCAACAUGAGGAUCACCCAUGUAGUCUGACGAUUGUGUGUGUAGUUGAGAU [JR_SHM208A_Sub028] (puzzle: Sensor for hsa-mir-208a)
value units: nM
apparent KD of MS2 coat protein: 51.8
//
sequence code: AUUAAACAUGAGGAUCACCCAUGUCAACAAAGUCGAGGAUAUGGGCAAAUAAAAUAAGAACCAGAAGGCGAUUAAU [salish99_ss1_r3_078] (puzzle: Same State 1)
value units: nM
apparent KD of MS2 coat protein: 18.7
//
sequence code: UUUUUUAAGACGAGACAAGCUUUUUGAUCACAUGAGGAUCACCCAUGUCUCGUCUUAUUUUUUUUUUUUUUUUUUUU [BA Sensor hsa-mir-208a - 2 - 3] (puzzle: Sensor for hsa-mir-208a)
value units: nM
apparent KD of MS2 coat protein: 21.4
